Assay: Inhibition of quorum sensing system in Pseudomonas aeruginosa MH602 PlasB::gfp at 250 uM incubated for 15 hrs by GFP reporter gene assay
This section presents compounds with their documented inhibition values.
Field: numeric (%). Do not append units.

- chemicalStructure: "C=C1C(c2ccc(Br)cc2)=CC(=O)N1c1cccc(F)c1"
  observed: 50.9
- chemicalStructure: "O=C1C=C(c2ccccc2)CN1"
  observed: 57.7

Ask: inhibition for `C=C1NC(=O)C=C1c1ccccc1Cl` ?
Reply: 72

Ask: inhibition for `C=C1NC(=O)C=C1c1ccc([N+](=O)[O-])cc1` ?
Reply: 80.9

Ask: inhibition for `O=C1C=C(Br)/C(=C/Br)O1` ?
Reply: 87.5

Ask: inhibition for `O=C1C=C(c2ccccc2F)/C(=C/Br)N1` ?
Reply: 86.3

Ask: inhibition for `COc1ccc(C2=CC(=O)NC2)cc1` ?
Reply: 66.5

* * *

This section presents compounds with their documented inhibition values.
Experiment: Inhibition of quorum sensing system in Pseudomonas aeruginosa MH602 PlasB::gfp at 62.5 uM incubated for 15 hrs by GFP reporter gene assay
Field: numeric (%). Do not append units.

- chemicalStructure: "O=C1C=C(c2ccccc2F)CN1"
  parameter: "inhibition"
  observed: 30.5

Ask: inhibition for `C=C1NC(=O)C(C)=C1c1ccc(F)cc1` ?
Reply: 32.1

Ask: inhibition for `C=C1NC(=O)C=C1c1ccccc1` ?
Reply: 31.6

Ask: inhibition for `O=C1C=C(c2ccc(Br)cc2)CN1` ?
Reply: 25

Ask: inhibition for `C=C1C(c2ccc(Br)cc2)=CC(=O)N1c1ccc(S(C)(=O)=O)cc1` ?
Reply: 31.3

Ask: inhibition for `C=C1NC(=O)C=C1c1ccc(OC)cc1` ?
Reply: 44.5

Ask: inhibition for `C=C1NC(=O)C=C1c1cccc(F)c1` ?
Reply: 52.9

* * *

Assay: Inhibition of quorum sensing system in Pseudomonas aeruginosa MH602 PlasB::gfp at 250 uM incubated for 15 hrs by GFP reporter gene assay
parameter: inhibition (%)
Field: numeric (%). Do not append units.

Some entries whose results are on file:
- chemicalStructure: "C=C1NC(=O)C=C1c1ccc(C)cc1"
  measurementUnits: "%"
  inhibition: 80.5
- chemicalStructure: "C=C1NC(=O)C(C)=C1c1ccc(F)cc1"
  measurementUnits: "%"
  inhibition: 66.5
- chemicalStructure: "O=C1C=C(c2ccc(Br)cc2)CN1"
  measurementUnits: "%"
  inhibition: 65.9
- chemicalStructure: "O=C1C=C(c2ccc(Cl)cc2)CN1"
  measurementUnits: "%"
  inhibition: 61.5
- chemicalStructure: "C=C1NC(=O)C=C1c1ccc(Br)cc1"
  measurementUnits: "%"
  inhibition: 82.3

Ask: inhibition for `C=C1C(c2ccccc2F)=CC(=O)N1c1ccc(C)cc1` ?
Reply: 65

Ask: inhibition for `C=C1C(c2ccccc2F)=CC(=O)N1c1ccccc1` ?
Reply: 63.7

Ask: inhibition for `C=C1NC(=O)C=C1c1cccc(Cl)c1` ?
Reply: 73.3

Ask: inhibition for `C=C1C(c2ccccc2F)=CC(=O)N1c1ccc(Br)cc1` ?
Reply: 60.7

* * *

Assay: Inhibition of quorum sensing system in Pseudomonas aeruginosa MH602 PlasB::gfp at 250 uM incubated for 15 hrs by GFP reporter gene assay
Label 1 when inhibition is at or above 70%; anything below gets 0.

See these solved cases before continuing.
- chemicalStructure: "C=C1C(c2ccccc2F)=CC(=O)N1c1cccc(F)c1"
  labelClass: 0
- chemicalStructure: "C=C1NC(=O)C(C)=C1c1ccccc1F"
  labelClass: 0
- chemicalStructure: "C=C1C(c2ccc(Br)cc2)=CC(=O)N1c1ccc(C(F)(F)F)cc1"
  labelClass: 0
- chemicalStructure: "C=C1C(c2ccc(Br)cc2)=CC(=O)N1c1ccc(Br)cc1"
  labelClass: 0

Ask: Tell me whether inhibition is at least 70% here: `C=C1C(c2ccccc2F)=CC(=O)N1c1ccc(Cl)cc1`
Reply: 0

Ask: Tell me whether inhibition is at least 70% here: `C=C1NC(=O)C=C1c1cccc(F)c1`
Reply: 1

Ask: Tell me whether inhibition is at least 70% here: `C=C1C(c2ccc(Br)cc2)=CC(=O)N1c1ccc(C)cc1`
Reply: 0

Ask: Tell me whether inhibition is at least 70% here: `C=C1NC(=O)C(C)=C1c1ccc(Br)cc1`
Reply: 0

Ask: Tell me whether inhibition is at least 70% here: `O=C1C=C(c2ccc(Br)cc2)/C(=C/Br)N1`
Reply: 1

Ask: Tell me whether inhibition is at least 70% here: `C=C1C(c2ccccc2F)=CC(=O)N1CCCC`
Reply: 0

Ask: Tell me whether inhibition is at least 70% here: `C=C1NC(=O)C(C)=C1c1ccc(Cl)cc1`
Reply: 0

* * *

Experiment: Inhibition of quorum sensing system in Pseudomonas aeruginosa MH602 PlasB::gfp at 31.25 uM incubated for 15 hrs by GFP reporter gene assay
Label true when inhibition is at or above 40%; anything below gets false.

See these solved cases before continuing.
- chemicalStructure: "C=C1NC(=O)C=C1c1ccc(OC)cc1"
  labelClass: "false"
- chemicalStructure: "C=C1C(c2ccccc2F)=CC(=O)N1c1cccc(C)c1"
  labelClass: "false"
- chemicalStructure: "C=C1NC(=O)C=C1c1ccc(Br)cc1"
  labelClass: "true"
- chemicalStructure: "C=C1NC(=O)C=C1c1ccc(F)cc1"
  labelClass: "false"
- chemicalStructure: "O=C1C=C(c2ccc(Cl)cc2)CN1"
  labelClass: "false"

Note: attention shifts to another entry.
Ask: Tell me whether inhibition is at least 40% here: `C=C1C(c2ccc(Br)cc2)=CC(=O)N1c1ccccc1`
Reply: false

* * *

Assay: Inhibition of quorum sensing system in Pseudomonas aeruginosa MH602 PlasB::gfp at 125 uM incubated for 15 hrs by GFP reporter gene assay
parameter: inhibition (%)
Field: numeric (%). Do not append units.

Some entries whose results are on file:
- chemicalStructure: "C=C1C(c2ccc(Br)cc2)=CC(=O)N1c1ccc(C)cc1"
  inhibition (%): 52.6
- chemicalStructure: "O=C1C=C(Br)/C(=C/Br)O1"
  inhibition (%): 83.1
- chemicalStructure: "O=C1C=C(c2ccsc2)CN1"
  inhibition (%): 49.3
- chemicalStructure: "C=C1C(c2ccccc2F)=CC(=O)N1c1ccc(Br)cc1"
  inhibition (%): 54.9
- chemicalStructure: "C=C1C(c2ccccc2F)=CC(=O)N1c1ccccc1"
  inhibition (%): 60.9

Ask: inhibition for `C=C1C(c2ccccc2F)=CC(=O)N1CCCC` ?
Reply: 34.2

Ask: inhibition for `C=C1C(c2ccc(Br)cc2)=CC(=O)N1c1csc2ccccc12` ?
Reply: 55.6

Ask: inhibition for `C=C1NC(=O)C=C1c1cccc(Cl)c1` ?
Reply: 69.4

Ask: inhibition for `C=C1NC(=O)C(C)=C1c1ccc(Br)cc1` ?
Reply: 45.2

Ask: inhibition for `C=C1NC(=O)C=C1c1ccc(Br)cc1` ?
Reply: 75.2

Ask: inhibition for `C=C1NC(=O)C=C1c1ccc(C(=O)O)cc1` ?
Reply: 50.8

Ask: inhibition for `O=C1C=C(c2cccc(F)c2)CN1` ?
Reply: 45.5

Ask: inhibition for `O=C1C=C(c2ccc(Br)cc2)CN1` ?
Reply: 42.8

Ask: inhibition for `COc1ccc(C2=CC(=O)NC2)cc1` ?
Reply: 48.5

* * *

Assay: Inhibition of quorum sensing system in Pseudomonas aeruginosa MH602 PlasB::gfp at 31.25 uM incubated for 15 hrs by GFP reporter gene assay
Bucketed by reported inhibition, buckets being class 0 = under 20%, class 1 = from 20% up to 40%, class 2 = 40% and over

- chemicalStructure: "C=C1C(c2ccc(Br)cc2)=CC(=O)N1c1ccc(C(F)(F)F)cc1"
  labelClass: "class 0"
- chemicalStructure: "C=C1C(c2ccccc2F)=CC(=O)N1c1ccccc1"
  labelClass: "class 2"
- chemicalStructure: "C=C1NC(=O)C(C)=C1c1ccc(Cl)cc1"
  labelClass: "class 1"

Ask: Into which bin does this compound go? `O=C1C=C(c2ccccc2F)CN1`
Reply: class 1

Ask: Into which bin does this compound go? `C=C1NC(=O)C(C)=C1c1cccc(C(F)(F)F)c1`
Reply: class 1

Ask: Into which bin does this compound go? `C=C1C(c2ccc(Br)cc2)=CC(=O)N1c1cccc(Br)c1`
Reply: class 0

Ask: Into which bin does this compound go? `O=C1C=C(c2ccccc2)/C(=C/Br)N1`
Reply: class 2

Ask: Into which bin does this compound go? `C=C1C(c2ccc(Br)cc2)=CC(=O)N1c1ccc(Br)cc1`
Reply: class 0

Ask: Into which bin does this compound go? `C=C1NC(=O)C=C1c1ccccc1F`
Reply: class 1

Ask: Into which bin does this compound go? `O=C1C=C(Br)/C(=C/Br)O1`
Reply: class 2

Ask: Into which bin does this compound go? `C=C1NC(=O)C=C1c1ccc(Cl)cc1`
Reply: class 1

Ask: Into which bin does this compound go? `C=C1C(c2ccccc2F)=CC(=O)N1c1cccc(Br)c1`
Reply: class 1
